ncRNA array expression, patient 24 overview
- Tested on: ncRNAs (SEQ ID NO 28-89)
- measurement notes: ncRNA arrays of melanocytes, keratinocytes, normal skin, melanoma cell lines and patient samples
- Parameters: species or system human
- particulars: melanoma patient 24 sample compared to normal skin

Past entries and their recorded results:
GET /value?item= SEQ ID NO 65 (CACCGTTTTACTTTTTGTGGGGAGGGGAAGCAGTATCAAAATTTCTTCGGGCGCCAGAAC; listed as DNA, chemistry not given here; listed as Homo sapiens) &field=ncRNA array expression, patient 24 returns −1.241

What the record says about SEQ ID NO 45 (ATTTAGAGAACATTTAAATCTGTAAGGAAGAAAATAATAACGACTCACAATTACATCATT; listed as DNA, chemistry not given here; listed as Homo sapiens) : ncRNA array expression, patient 24 is −1.588

Lookup result for SEQ ID NO 29 (TTAAATACATGTTTCTAATATTTTAGTGTTTTGTATTTAGGTTATTTATTCTTTGTATCT; DNA, backbone and methylation of C not given here; listed as Homo sapiens) ; measured ncRNA array expression, patient 24: 2.143

In plain terms, SEQ ID NO 59 (TGTGCAGCAGTATCAAAGGTCCTTAAATTCTCAACAATGAAGGAAAAACAAAAACCCATT; listed as DNA, chemistry not given here; listed as Homo sapiens) has a documented ncRNA array expression, patient 24 of −1.154

Okay, next one:
Lab book: ncRNA array expression, patient 24 of SEQ ID NO 54 (TTTTTTTTCTTGTCCTATTACAACATTTTATAACCTTATGAATCAATGGATACTTTTATT; listed as DNA, chemistry not given here; listed as Homo sapiens) noted as 2.124
